Biological target: human SSAO (Homo sapiens)
Test: SSAO inhibitory activity (HRP-coupled hydrogen peroxide detection or 14C-benzaldehyde detection, benzylamine substrate)
Settings: purified recombinantly expressed human SSAO, benzylamine as substrate, RT
pIC50: −log10 of the molar value. Counter-ions that a name gives are not always drawn.
Measured pIC50 by item
attributeMeasured: pIC50

Cc1ccc(-n2nc(N3CCOC(CNC(=O)OC(C)C)C3)c3ccncc32)cc1 (stereo not shown) | > 7.00
NCCCOC(=O)N1CCN(CC2CN(c3nn(-c4ccc(Cl)cc4)c4cnccc34)CCO2)CC1 (stereo not shown) | 6.30 to 7.00
NCCNC(=O)CC1COCCN1c1nn(-c2ccc(Cl)cc2)c2cnccc12 (stereo not shown) [Compound 54, dihydrochloride] | > 7.00
Cc1ccc(-n2nc(N3CCOC(CN4CCOCC4)C3)c3ccncc32)cc1 (stereo not shown) | 6.30 to 7.00
COC(=O)CC1COCCN1c1nn(-c2ccc(Cl)cc2)c2cnccc12 (stereo not shown) | > 7.00
CN1CCC(CNC(=O)CC2COCCN2c2nn(-c3ccc(Cl)cc3)c3cnccc23)CC1 (stereo not shown) | 6.30 to 7.00
CN1CCC(CNC(=O)N2CCC(c3cn(-c4ccc(Cl)cc4)c4cnccc34)CC2)CC1 | > 7.00
O=C(NCCN1CCNCC1)N1CCC(c2cn(-c3ccc(Cl)cc3)c3cnccc23)CC1 | > 7.00
CN1CCN(CCNC(=O)N2CCC(c3cn(-c4ccc(Cl)cc4)c4cnccc34)CC2)CC1 | > 7.00
CC(C)[C@H]1CN(C(=O)N2CCC(c3cn(-c4ccc(Cl)cc4)c4cnccc34)CC2)CCN1 | > 7.00
Clc1ccc(-n2cc(C3CCN(CC4CCNCC4)CC3)c3ccncc32)cc1 | 6.30 to 7.00
Clc1ccc(-n2nc(N3CCC(CNCC4CCNCC4)CC3)c3ccncc32)cc1 | 6.30 to 7.00
CC(C)N1CCC(NC(=O)N2CCC(c3cn(-c4ccc(Cl)cc4)c4cnccc34)CC2)CC1 | > 7.00
O=C1NCCN1CCNc1nn(-c2ccc(Cl)cc2)c2cnccc12 | > 7.00
CCNC(=O)N1CCN(CC2CN(c3nn(-c4ccc(Cl)cc4)c4cnccc34)CCO2)CC1 (stereo not shown) | 6.30 to 7.00
O=C(O)CC1COCCN1c1nn(-c2ccc(Cl)cc2)c2cnccc12 (stereo not shown) | 5.60 to 6.30
CC(C)N1CCC(CN(C)C(=O)N2CCC(c3cn(-c4ccc(Cl)cc4)c4cnccc34)CC2)CC1 | > 7.00
Clc1ccc(-n2nc(NCCN3CCOCC3)c3ccncc32)cc1 | 5.60 to 6.30
O=C(CC1CCNCC1)N1CCC(c2cn(-c3ccc(Cl)cc3)c3cnccc23)CC1 | > 7.00
Cc1ccc(-n2nc(N3CCOC(CNCCN)C3)c3ccncc32)cc1 (stereo not shown) | 6.30 to 7.00
O=C(NCC1CNCCO1)N1CCC(c2cn(-c3ccc(Cl)cc3)c3cnccc23)CC1 (stereo not shown) | > 7.00
Clc1ccc(-n2nc(N3CCOCC3CN3CCOCC3)c3ccncc32)cc1 (stereo not shown) | 6.30 to 7.00
CN1CCN(CCNc2nn(-c3ccc(Cl)cc3)c3cnccc23)CC1 | 6.30 to 7.00
Clc1ccc(-n2nc(N3CCOC(CN4CCNCC4)C3)c3ccncc32)cc1 (stereo not shown) | > 7.00
CC(=O)OC1CCN(c2nn(-c3ccc(C)cc3)c3cnccc23)CC1 | > 7.00
Cc1ccc(-n2nc(N3CCOC(CNC(=O)NC4CC4)C3)c3ccncc32)cc1 (stereo not shown) | > 7.00
Clc1ccc(-n2nc(N3CCC(CN4CCOCC4)CC3)c3ccncc32)cc1 | > 7.00
Clc1ccc(-n2cc(C3CCN(C4CCNCC4)CC3)c3ccncc32)cc1 | 6.30 to 7.00

###

Target: human SSAO (Homo sapiens)
Test: SSAO inhibitory activity (HRP-coupled hydrogen peroxide detection or 14C-benzaldehyde detection, benzylamine substrate)
Details: purified recombinantly expressed human SSAO, benzylamine as substrate, RT
Documented IC50 across a set of compounds
attributeMeasured: IC50

Clc1ccc(-n2nc(NCCN3CCNCC3)c3ccncc32)cc1 [Compound 45] | 100 to 500 nM
CN1CCN(C(=O)CC2COCCN2c2nn(-c3ccc(Cl)cc3)c3cnccc23)CC1 (stereo not shown) [Compound 55] | < 100 nM
CC(=O)NCCCNC(=O)N1CCC(c2cn(-c3ccc(Cl)cc3)c3cnccc23)CC1 [Compound 29] | < 100 nM
O=C(NC(c1nn[nH]n1)C1CC1)N1CCC(c2cn(-c3ccc(Cl)cc3)c3cnccc23)CC1 (stereo not shown) [Compound 62, trifluoroacetic acid] | < 100 nM

###

Target: human SSAO (Homo sapiens)
Sequence (Q16853 29-763 limits assumed): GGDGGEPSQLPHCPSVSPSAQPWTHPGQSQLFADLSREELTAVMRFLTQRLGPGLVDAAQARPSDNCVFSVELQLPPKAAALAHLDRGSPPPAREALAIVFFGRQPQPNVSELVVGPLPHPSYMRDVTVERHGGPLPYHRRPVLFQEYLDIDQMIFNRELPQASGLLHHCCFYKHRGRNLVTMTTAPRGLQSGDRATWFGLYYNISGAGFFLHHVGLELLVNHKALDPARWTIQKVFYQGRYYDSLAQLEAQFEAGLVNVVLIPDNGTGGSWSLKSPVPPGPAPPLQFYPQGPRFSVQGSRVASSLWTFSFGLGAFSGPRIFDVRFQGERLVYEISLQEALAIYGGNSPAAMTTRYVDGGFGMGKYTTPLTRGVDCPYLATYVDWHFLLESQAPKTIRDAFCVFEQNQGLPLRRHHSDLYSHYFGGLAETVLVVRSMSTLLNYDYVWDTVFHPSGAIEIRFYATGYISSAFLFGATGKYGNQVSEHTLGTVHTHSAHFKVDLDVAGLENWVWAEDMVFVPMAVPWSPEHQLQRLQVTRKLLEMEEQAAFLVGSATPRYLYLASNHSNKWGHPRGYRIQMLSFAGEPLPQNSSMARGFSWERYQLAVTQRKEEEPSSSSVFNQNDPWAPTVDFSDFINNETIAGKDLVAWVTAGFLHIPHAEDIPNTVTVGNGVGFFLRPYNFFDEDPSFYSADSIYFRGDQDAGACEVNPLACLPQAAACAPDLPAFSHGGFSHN
Experiment: SSAO inhibitory activity (HRP-coupled hydrogen peroxide detection or 14C-benzaldehyde detection, benzylamine substrate)
Conditions: purified recombinantly expressed human SSAO, benzylamine as substrate, RT
pIC50: −log10 of the molar value.
attributeMeasured: pIC50

NC(=O)CN1CCC(CNC(=O)N2CCC(c3cn(-c4ccc(Cl)cc4)c4cnccc34)CC2)CC1 | > 7.00
CN1CCC(CN(C)C(=O)N2CCC(c3cn(-c4ccc(Cl)cc4)c4cnccc34)CC2)CC1 | > 7.00
CC(C)N1CCC(CNC(=O)N2CCC(c3cn(-c4ccc(Cl)cc4)c4cnccc34)CC2)CC1 | > 7.00
CN1CCN(C(=O)N2CCC(c3cn(-c4ccc(Cl)cc4)c4cnccc34)CC2)CC1 | > 7.00
O=C(N1CCC(c2cn(-c3ccc(Cl)cc3)c3cnccc23)CC1)N1CCN(C2CC2)CC1 | > 7.00
CN1CCN(C)C(CNC(=O)N2CCC(c3cn(-c4ccc(Cl)cc4)c4cnccc34)CC2)C1 (centres unmarked) | > 7.00
CN1CCC(CCNC(=O)N2CCC(c3cn(-c4ccc(Cl)cc4)c4cnccc34)CC2)CC1 | > 7.00
CN(C)[C@H]1CCN(C(=O)CC2COCCN2c2nn(-c3ccc(Cl)cc3)c3cnccc23)C1 (some centres unmarked) | > 7.00
O=C(NCCCN1CCOCC1)N1CCC(c2cn(-c3ccc(Cl)cc3)c3cnccc23)CC1 | > 7.00
O=C(NCC1CCNCC1)N1CCC(c2cn(-c3ccc(Cl)cc3)c3cnccc23)CC1 | > 7.00
CCN1CCC(CNC(=O)N2CCC(c3cn(-c4ccc(Cl)cc4)c4cnccc34)CC2)CC1 | > 7.00
Clc1ccc(-n2nc(N3CCC(CN4CCNCC4)CC3)c3ccncc32)cc1 | 6.30 to 7.00
Cc1ccc(-n2nc(N3CCOC(COCCN)C3)c3ccncc32)cc1 (centres unmarked) | 6.30 to 7.00
O=C(NCCN1CCOCC1)N1CCC(c2cn(-c3ccc(Cl)cc3)c3cnccc23)CC1 | > 7.00
CN1CCC(NC(=O)CC2COCCN2c2nn(-c3ccc(Cl)cc3)c3cnccc23)CC1 (centres unmarked) | 6.30 to 7.00
CC(=O)N1CCC(NC(=O)N2CCC(c3cn(-c4ccc(Cl)cc4)c4cnccc34)CC2)CC1 | > 7.00
O=C(NC1(c2nn[nH]n2)CCC1)N1CCC(c2cn(-c3ccc(Cl)cc3)c3cnccc23)CC1 | > 7.00
CN1CCN(CCC2COCCN2c2nn(-c3ccc(Cl)cc3)c3cnccc23)CC1 (centres unmarked) | > 7.00
O=C(NCc1nn[nH]n1)N1CCC(c2cn(-c3ccc(Cl)cc3)c3cnccc23)CC1 | > 7.00
NC(=O)NCC1CN(c2nn(-c3ccc(Cl)cc3)c3cnccc23)CCO1 (centres unmarked) | > 7.00
CN1CCC(CNC(=O)N2CCN(c3nn(-c4ccc(Cl)cc4)c4cnccc34)CC2)CC1 | > 7.00
CN1CCC(NC(=O)N2CCC(c3cn(-c4ccc(Cl)cc4)c4cnccc34)CC2)CC1 | > 7.00
COCCN1CCN(C(=O)N2CCC(c3cn(-c4ccc(Cl)cc4)c4cnccc34)CC2)CC1 | > 7.00
Clc1ccc(-n2cc(C3CCN(C4CCNC4)CC3)c3ccncc32)cc1 (centres unmarked) | > 7.00
CN1CCC(CNC(=O)C2CCCCN2c2nn(-c3ccc(Cl)cc3)c3cnccc23)CC1 (centres unmarked) | 6.30 to 7.00
CN1CCN(CC2CN(c3nn(-c4ccc(Cl)cc4)c4cnccc34)CCO2)CC1 (centres unmarked) | 6.30 to 7.00
COCCN1CCC(CNC(=O)N2CCC(c3cn(-c4ccc(Cl)cc4)c4cnccc34)CC2)CC1 | > 7.00
O=C(NCC1CCNCC1)C1CCN(c2nn(-c3ccc(Cl)cc3)c3cnccc23)CC1 | 6.30 to 7.00
CC(C)N1CCN(C(=O)N2CCC(c3cn(-c4ccc(Cl)cc4)c4cnccc34)CC2)CC1 | > 7.00
NCCCNC(=O)N1CCN(CC2CN(c3nn(-c4ccc(Cl)cc4)c4cnccc34)CCO2)CC1 (centres unmarked) | 6.30 to 7.00
CNC(=O)NCC1CN(c2nn(-c3ccc(Cl)cc3)c3cnccc23)CCO1 (centres unmarked) | > 7.00
O=C(NC1CCNCC1)N1CCC(c2cn(-c3ccc(Cl)cc3)c3cnccc23)CC1 | > 7.00

Just for reference, patent US20140275063A1 is where these values come from.
